# Test system: MCF7 breast
# procedureText: NCI tumour cell line growth inhibition, 48 h
# TGI annotations

- molecule: "CC(=O)c1c(CN(C)c2ccccc2)n([O-])c2ccccc2[n+]1=O"
  TGI: "63 µM"
- molecule: "CC12CC3OC(=O)C1COC14OC5(C2C1=O)C(O)(CCC1C4CC2OC24CC=CC(=O)C14C)C(=O)OC35C (stereo not drawn)"
  TGI: "40.9 µM"
- molecule: "COc1cc(OC)c2nccc(NCCCN(C)C)c2c1[N+](=O)[O-]"
  TGI: "> 100 µM"
- molecule: "COc1cc(-c2cc(-c3ccc(Nc4ccnc5cc(Cl)ccc45)cc3)nc(N3CCOCC3)n2)cc(OC)c1OC"
  TGI: "3.26 µM"
- molecule: "Cc1cn(CCCCCCC2=NCCCN2)c(=O)[nH]c1=O"
  TGI: "> 100 µM"
- molecule: "CN(Cc1cccc(F)c1)c1ccc(CO)c(Cl)c1"
  TGI: "26.3 µM"
- molecule: "S=c1[nH]nc(Cc2ccccc2)c(=S)[nH]1"
  TGI: "> 100 µM"
- molecule: "O=C(c1ccccc1)n1cc(-c2ccccc2)c2c(=O)[nH]cnc21"
  TGI: "> 100 µM"

* * *

# Test system: TK-10 renal
# procedureText: NCI tumour cell line growth inhibition, 48 h
propertyName: GI50

- inputSmiles: "O=[N+]([O-])c1ccc(Oc2nc(Nc3ccc(O[C@H]4CO[C@H]5[C@@H]4OC[C@@H]5O)c(Cl)c3)ncc2F)c(Cl)c1"
  result: "1080 nM"
- inputSmiles: "COc1cccc(-c2nn(-c3ccccc3)cc2-c2ccnc(NCCNC(=O)Nc3cccc(C(F)(F)F)c3)c2)c1"
  result: "2740 nM"
- inputSmiles: "COc1ccccc1C1=C(Nc2ccccc2)C(=O)NC1=O"
  result: "> 25000 nM"
- inputSmiles: "O=C(CN1CCN(c2cc3c(cc2F)c(=O)c(C(=O)O)cn3C2CC2)CC1)Nc1nc(-c2ccc(Cl)cc2)cs1"
  result: "4280 nM"
- inputSmiles: "CC1=CC(=O)C(C(C)C)=CC1=Nc1cc(Br)c(O)c(Br)c1"
  result: "11700 nM"
- inputSmiles: "COc1cccc2c1-c1c(c3ccc([N+](=O)[O-])cc3c(=O)n1CCCN)C2=O"
  result: "2810 nM"

* * *

# Test system: OVCAR-5 ovarian
# procedureText: NCI tumour cell line growth inhibition, 48 h

- compound: "N#Cc1c(Br)n(C2OC(CO)C(O)C2O)c2ncnc(N)c12 (stereo unspecified)"
  TGI: "> 100 µM"
- compound: "CCOC(=O)C[n+]1cccc(C2(c3cc4ccccc4[nH]3)OCCO2)c1"
  TGI: "> 100 µM"
- compound: "COc1ccc2c(C3(c4cn(C)c5cc(OC)ccc45)C(=O)Nc4ccc(Cl)cc43)cn(C)c2c1"
  TGI: "> 100 µM"
- compound: "CC(=O)OCC1OC(OCCCCCCO)C(OC(C)=O)C(OC(C)=O)C1OC(C)=O (stereo unspecified)"
  TGI: "> 100 µM"
- compound: "COC(=O)CCc1ccc2c(c1)C(=O)CC2"
  TGI: "> 100 µM"
- compound: "COc1cc(OC)c2nccc(NCCCN(C)C)c2c1[N+](=O)[O-]"
  TGI: "> 100 µM"
- compound: "COC(=O)[C@H]1NC(=O)CCSSC1(C)C"
  TGI: "> 100 µM"
- compound: "CC(C)CCCC(C)[C@H]1CC[C@H]2[C@@H]3CC[C@H]4C[C@@H](CCC=C(c5cc(Cl)c(O)c(C(=O)OC(C)C)c5)c5cc(Cl)c(O)c(C(=O)OC(C)C)c5)CC[C@]4(C)[C@H]3CC[C@]12C (stereo partly specified)"
  TGI: "> 50 µM"
- compound: "O=[N+]([O-])c1ccc(Oc2nc(Nc3ccc(O[C@H]4CO[C@H]5[C@@H]4OC[C@@H]5O)c(Cl)c3)ncc2F)c(Cl)c1"
  TGI: "16.8 µM"
- compound: "ON(Cc1ccccc1)C(=S)c1ccccc1"
  TGI: "> 100 µM"
- compound: "COC1=C(C)C(=O)c2c(c(CCCl)c3n2CCC3O)C1=O (stereo unspecified)"
  TGI: "7.72 µM"
- compound: "COc1cc(CNc2cnc3cc(N)ccc3n2)cc(OC)c1OC"
  TGI: "> 100 µM"
- compound: "O=[N+]([O-])c1ccccc1S(=O)(=O)c1ccccc1"
  TGI: "> 100 µM"
- compound: "CCOC(=O)C(CC(C)C)NC(=O)CSc1nnc(COc2ccc(Cl)cc2)n1-c1ccccc1 (stereo unspecified)"
  TGI: "39.4 µM"
- compound: "O=C(CCC(=O)Nc1ccc(Cl)c(Cl)c1)CC(=O)c1ccc(F)cc1"
  TGI: "> 100 µM"
- compound: "CC1(C)C(CCO)CC1n1cc(I)c(=O)[nH]c1=O (stereo unspecified)"
  TGI: "> 100 µM"
- compound: "COC(=O)CCC1CCc2c(OC)ccc(OC)c2C1=O (stereo unspecified)"
  TGI: "> 100 µM"
- compound: "CSC1C(=O)Nc2ccc3ccccc3c21 (stereo unspecified)"
  TGI: "> 100 µM"
- compound: "CN(C)c1ccc(C=C2C(=O)N(c3ccccc3)N(c3ccccc3)C2=O)cc1"
  TGI: "> 100 µM"
- compound: "Cc1cc(S(=O)(=O)/N=C/N(C)C)c(SC(=O)c2ccc(Cl)cc2)cc1Cl"
  TGI: "> 100 µM"
- compound: "COc1cccc(-c2ccc3c(c2)C2CCN(Cc4ccccc4)C3C2)c1 (stereo unspecified)"
  TGI: "29 µM"
